testedSystem: Angiotensin-converting enzyme (ACE) (Homo sapiens, UniProt P12821)
Sequence (P12821 30-1306, species assumed): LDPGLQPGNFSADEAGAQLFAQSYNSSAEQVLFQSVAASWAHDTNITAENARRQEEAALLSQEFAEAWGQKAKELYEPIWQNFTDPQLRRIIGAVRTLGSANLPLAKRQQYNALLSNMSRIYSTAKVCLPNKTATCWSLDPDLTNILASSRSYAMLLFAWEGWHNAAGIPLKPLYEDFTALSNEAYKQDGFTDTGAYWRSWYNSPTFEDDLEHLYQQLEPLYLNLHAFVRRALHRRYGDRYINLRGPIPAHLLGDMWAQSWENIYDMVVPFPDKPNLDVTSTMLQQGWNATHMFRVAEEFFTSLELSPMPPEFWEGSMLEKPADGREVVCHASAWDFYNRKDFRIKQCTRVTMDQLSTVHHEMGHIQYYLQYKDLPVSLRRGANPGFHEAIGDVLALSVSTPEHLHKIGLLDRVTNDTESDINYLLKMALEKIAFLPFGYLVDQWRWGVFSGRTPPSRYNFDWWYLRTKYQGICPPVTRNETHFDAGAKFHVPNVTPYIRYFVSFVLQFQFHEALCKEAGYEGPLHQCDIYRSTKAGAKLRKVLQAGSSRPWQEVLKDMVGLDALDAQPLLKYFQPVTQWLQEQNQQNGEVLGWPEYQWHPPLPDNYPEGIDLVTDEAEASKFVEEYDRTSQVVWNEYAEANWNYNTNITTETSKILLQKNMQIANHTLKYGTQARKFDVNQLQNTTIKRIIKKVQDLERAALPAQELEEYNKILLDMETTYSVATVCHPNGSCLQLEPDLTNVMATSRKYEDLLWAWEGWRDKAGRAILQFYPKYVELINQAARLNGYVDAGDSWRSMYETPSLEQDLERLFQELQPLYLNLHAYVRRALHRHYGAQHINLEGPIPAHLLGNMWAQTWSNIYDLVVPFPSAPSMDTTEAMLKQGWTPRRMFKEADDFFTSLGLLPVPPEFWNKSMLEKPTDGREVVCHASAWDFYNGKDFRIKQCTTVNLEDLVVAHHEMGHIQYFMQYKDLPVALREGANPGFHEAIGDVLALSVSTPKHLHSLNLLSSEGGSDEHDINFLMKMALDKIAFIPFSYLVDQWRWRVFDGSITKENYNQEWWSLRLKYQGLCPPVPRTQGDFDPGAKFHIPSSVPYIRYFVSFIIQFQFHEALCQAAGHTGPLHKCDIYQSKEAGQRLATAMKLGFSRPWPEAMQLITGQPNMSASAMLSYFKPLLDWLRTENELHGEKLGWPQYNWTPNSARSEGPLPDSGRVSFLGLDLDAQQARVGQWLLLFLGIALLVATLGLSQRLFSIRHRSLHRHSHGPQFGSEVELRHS
experimentalDetails: ACE inhibition, Cushman & Cheung method with slight modifications (HHL substrate)
Type: biochemical
pIC50: −log10 of the molar value. Where no end group is shown, it is not given here.

| sequenceRecord | testedSystem | pIC50 |
| --- | --- | --- |
| VWTNCYHLYPAH [PepDB_AHP4] | Angiotensin-converting enzyme (ACE) (Homo sapiens, UniProt P12821) | 4.05 |

* * *

testedSystem: Angiotensin-converting enzyme (ACE) (Homo sapiens, UniProt P12821)
experimentalDetails: ACE inhibition, Cushman & Cheung method with slight modifications (HHL substrate)
Type: biochemical
conditionLabel: Cushman & Cheung method, HHL substrate; absorbance 228 nm; at least triplicates; nonlinear regression GraphPad Prism 8.0.1; read-out: IC50
Where no end group is shown, it is not given here.

| sequenceRecord | testedSystem | IC50 |
| --- | --- | --- |
| MSFLEHFLELK [PepDB_AHP1] | Angiotensin-converting enzyme (ACE) (Homo sapiens, UniProt P12821) | 331 µM |
